These data points were gathered from patent US20220073643A1.

Reported EC50 values are given for each entry in this list.
- ASSAY TARGET: Claudin18.2-His protein (human)
- METHOD: indirect ELISA on coated Claudin18.2-His
Answer with a number only, understood to be in ng/mL.

Use these answered entries as a reference point.
1) 292D9C7 (antibody, V domains shown) VH: QVQLKESGPGLVAPSQSLSITCTVSGFSLTDYGVSWIRQPPGKGLEWLGVIWGGGNAYYNSALKSRLSISKDNSKSQVFLKMNSLRTDDTAMYYCAKNGLLRYLDYWGQGSTLTVSS VL: DTVMTQSPSSLTVTAGEKVTMSCKSSQSLLNSGNQKNYLTWYQQKPGQPPKLLIYWASTRESGVPDRFTGSGSGRDFTLTISSVQVEDLAIYYCQNDYYYPLTFGAGTKVELK : 23.2
2) 267H5F12 (antibody, V domains shown) VH: QAYLQQSGAELVRSGASVKMSCKASGYTFTSHNMHWVKQTPGQGLEWIGYISPGNGYTNYNQKFRGKATLTADTSSSTAYMQISSLTSEDSAVYFCTRDYYGNSFTYWGQGTLVTVSA VL: DIVMTQSPSSLTEKAGERVSMSCKSSQSLFNSGNQKNYLTWYQQKPGQPPKLLIYWASTRESGVPDRFTGSGSGTEFTLTISSVQAEDLAVYYCQNNYWFPFTFGAGTKLELK : 8.22
3) 413C12F8 (antibody, V domains shown) VH: DVQLVESGGGLVQPGGSRKLSCAASGFTFSGFGVHWIRQTPEKGLEWVAYIGSGSRPIYYADTVKGRFTISRDNPKNTLFLQMTSLRSEDTAMYFCARFYYGNSFDHWGQGTLVTVSA VL: DIVMTQSPSFLTVTAGEKVTMNCRSSQSLLNSGNQKNYLTWYQQRPGQPPKLLIYWASTRESGVPDRFTGSGSGTDFTLTISSVQAEDLALYYCQNAYSFPLTFGAGTKLELK : 6.82
4) 416F12F3 (antibody, V domains shown) VH: DVQLVESGGGLVQPGGSRKLSCAASGFTFSSFGMHWVRQAPEKGLEWVAYISSGSSTIYYAHSVKGRFTISRDNPKNTLFLQMTSLGSEDTAMYYCARFYYGNSFAYWGQGTLVTVSA VL: DIVMTQSPSSLTVTAGEKVTLSCKSSQSLLNSGNQKNYLTWYQQKPGQPPKMLIYWASTRESGVPDRFTGSGSGTDFTLTISSVQAEDLAVYYCQNAYTYPLTFGAGTRLELK : 11.5

Consider now this further binder.
Incoming: Entry 391F1G2 (antibody, V domains shown) VH: DVQLVESGGGLVQPGGSRKLSCAASGFTFSSFGMHWVRQAPEKGLEWVAYISSGSSPIYYADTVKGRFTISRDNPKNTLFLQMTSLRSEDTAMYFCARIYYGNSFAYWGQGTLVTVSA VL: DIVMTQSPSSLTVTAGEKVAMSCKSSQTLLNSGNQKNYLTWYQQKPGQPPKLLLYWASTRESGVPDRFTGSGSGTDFTLTISSVQAEDLAVYYCQNAYYYPLTFGSGTKLELK has what EC50?
Outgoing: 8.36
